System: SNB-75 CNS
test.method.notes: NCI-60 one-dose screen, 48 h (100 = growth as untreated, 0 = no growth, -100 = all killed)
protocol.conditions: 10 µM unless noted
About 83,000 compounds went through this panel and 20% of them were active in at least one assay; those are over-represented in the sample as a whole.
If the reported growth equals or exceeds 40%, assign Satisfied. If not, assign Not satisfied.

molecule | discrete.label
CSc1nc(CC(C)C)c(C#N)c(=O)n1C | Satisfied
O=c1c(Cc2ccc(F)cc2)cc(-c2ccccc2)nn1C/C(=N/O)c1ccccc1 | Satisfied

Consider the record given below.
Hello, I need to know if CCOC(=O)c1cc(C(=O)c2cc(OC)cc(OC)c2)n2ncccc12 has measured growth not below 40%. Thanks!
Not satisfied

Origin of measurements: PubChem BioAssay (NCI)
